- MEASURED_TARGET: human IL-23R (Homo sapiens)
*1 amine or outer side, *2 acyl side, *3 side chain or, on linkers, in order; H or OH if unused. Where a SMILES comes first, the peptide text is derived from it. Bridges are numbered along the chain shown (N, C = ends). [ ]: non-standard residue; d: D form. 2Nal = N[C@@H](Cc1ccc2ccccc2c1)C(=O)O; AEF = NCCOc1ccc(C[C@H](N)C(=O)O)cc1; X1 = O=C(Cc1ccc(CN[*:1])cc1)[*:2]; 3Pal = N[C@@H](Cc1cccnc1)C(=O)O; αMeL = CC(C)C[C@](C)(N)C(=O)O; Dab = NCC[C@H](N)C(=O)O; Sar = CNCC(=O)O
MEASUREMENT_TYPE: IC50
A complete answer gives the number followed by the unit.

Recorded IC50 for CC(C)C[C@]1(C)NC(=O)[C@H](Cc2ccc3ccccc3c2)NC(=O)[C@H](Cc2ccc(OCCN)cc2)NC(=O)[C@@H]2CCNC(=O)CC[C@H](NC(=O)[C@H](CO)NC(=O)Cc3ccc(cc3)CNC(=O)CC[C@@H](C(=O)N[C@@H](CCN)C(=O)N[C@@H](Cc3cccnc3)C(=O)N(C)CC(N)=O)NC1=O)C(=O)N[C@@H](Cc1c[nH]c3ccccc13)C(=O)N[C@@H](CCC(N)=O)C(=O)N2 [Compound 9] ([X1]SEWQ[Dab][AEF][2Nal][αMeL]E[Dab][3Pal][Sar]-NH2; lactam 3-6, N-10) with human IL-23R (Homo sapiens), please?
5.3 pM
